Where a name gives a salt, the structure may show the parent alone.
Parameter 'readout' = MIC; parameter 'system' = Shigella sonnei IID 969.
VALUE KIND: MIC (µg/mL)

{"MOLECULE": "Cl.O=C(O)c1cn(CCF)c2cc(N3CCNCC3)c(F)cc2c1=O", "RESULT UNIT": "µg/mL", "MODIFIER": "<", "RECORDED VALUE": 0.1}
{"MOLECULE": "CCn1cc(C(=O)O)c(=O)c2cnc(N3CCNCC3)nc21 [Pipemidic acid, reference compound]", "RESULT UNIT": "µg/mL", "MODIFIER": "=", "RECORDED VALUE": 1.56}
{"MOLECULE": "CCn1cc(C(=O)O)c(=O)c2cc(F)c(N3CCN(Cc4ccc([N+](=O)[O-])cc4)CC3)cc21", "RESULT UNIT": "µg/mL", "MODIFIER": "=", "RECORDED VALUE": 6.25}
{"MOLECULE": "CCn1cc(C(=O)O)c(=O)c2cc(Br)c(N3CCN(C)CC3)cc21", "RESULT UNIT": "µg/mL", "MODIFIER": "=", "RECORDED VALUE": 0.78}
{"MOLECULE": "CN1CCN(c2cc3c(cc2F)c(=O)c(C(=O)O)cn3CCF)CC1", "RESULT UNIT": "µg/mL", "MODIFIER": "<", "RECORDED VALUE": 0.1}
{"MOLECULE": "CCn1cc(C(=O)O)c(=O)c2cc(Br)c(N3CCNCC3)cc21 [Example 22, hydrochloride]", "RESULT UNIT": "µg/mL", "MODIFIER": "=", "RECORDED VALUE": 0.39}
{"MOLECULE": "C=Cn1cc(C(=O)O)c(=O)c2cc(F)c(N3CCN(C)CC3)cc21.Cl", "RESULT UNIT": "µg/mL", "MODIFIER": "=", "RECORDED VALUE": 0.2}
{"MOLECULE": "CCn1cc(C(=O)O)c(=O)c2ccc(C)nc21 [Nalidixic, nalidixic acid, reference compound]", "RESULT UNIT": "µg/mL", "MODIFIER": "=", "RECORDED VALUE": 1.56}
